% Inhibition (FS) 3 μM by entry:
# target_or_test_system: β-secretase(BACE) (Homo sapiens, UniProt P56817)
# Construct: purchased Panvera
# Sequence (P56817 46-501): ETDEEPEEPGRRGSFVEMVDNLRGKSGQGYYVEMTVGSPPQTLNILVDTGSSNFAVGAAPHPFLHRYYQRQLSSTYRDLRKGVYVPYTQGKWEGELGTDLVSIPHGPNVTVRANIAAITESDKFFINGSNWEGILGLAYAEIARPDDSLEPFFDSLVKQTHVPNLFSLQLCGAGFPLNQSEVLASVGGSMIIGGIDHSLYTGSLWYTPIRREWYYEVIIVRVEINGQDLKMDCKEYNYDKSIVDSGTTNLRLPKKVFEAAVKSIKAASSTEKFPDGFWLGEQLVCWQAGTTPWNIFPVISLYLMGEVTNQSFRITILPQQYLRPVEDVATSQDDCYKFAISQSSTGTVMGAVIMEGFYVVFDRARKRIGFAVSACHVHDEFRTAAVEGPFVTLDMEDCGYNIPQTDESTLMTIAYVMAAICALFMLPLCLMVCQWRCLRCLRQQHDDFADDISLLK
# assay_summary: BACE FS1% Inhibition Assay
# Type: biochemical
# measurement_parameters: 3 μM test compound; FS1 substrate
# Method: BACE FS1% Inhibition Assay The following reagents were used in this assay: sodium acetate, PEG8000 (Sigma), DMSO, HEPES, FS1 substrate [[…]] […] The FS1-substrate stock solution was prepared in DMSO as a 10 mg/mL solution. The FS1-substrate working solution was prepared by diluting the 10 mg/mL stock solution with substrate assay buffer to a final concentration of 300 μg/mL. […] For test compounds, % inhibition was determined at each concentration as follows: [formula]
Answer in %, number only, no unit symbol.

compound: Cc1ccccc1-c1ccc2c(c1)CN(CCNC(=O)C(C)(C)C)C(N)=N2 [Compound 660]
endpoint_result: 105

Task item: I am curious: what % Inhibition (FS) 3 μM value has been reported for CC(C)(C)OC(=O)NCC(C1CCCCC1)N1Cc2cc(Oc3ccccc3)ccc2N=C1N (centres unmarked) [Compound 257] ?
Reply: 111

Task item: Likewise for CCCC(CCC)C(=O)N1CCC(N2Cc3cc(Oc4ccccc4)ccc3N=C2N)CC1 [Compound 523] ?
Reply: 58

Task item: Likewise for CN(C(=O)c1cccc(CN2Cc3cc(Oc4ccccc4-n4cccc4)ccc3N=C2N)c1)C1CCCCC1 [Compound 471] ?
Reply: 38

Task item: Likewise for NC1=Nc2ccc(-c3cccc(CO)c3)cc2CN1CCNC(=O)Cc1ccccc1 [Compound 599] ?
Reply: 65

Task item: Likewise for NC1=Nc2ccc(-c3ccccc3F)cc2CN1CCNC(=O)C12CC3CC(CC(C3)C1)C2 [Compound 644] ?
Reply: 104

Task item: Likewise for COc1ccc(Sc2ccc3c(c2)CN(Cc2cccc(C(=O)N(C)C4CCCCC4)c2)C(N)=N3)cc1 [Compound 410] ?
Reply: 50

Task item: Likewise for NC1=Nc2ccc(Oc3ccccc3)cc2CN1CCCCNC(=O)C1CCCCC1 [Compound 115] ?
Reply: 40

Task item: Likewise for CN(C(=O)c1cccc(CN2Cc3cc(Nc4ccc5ccccc5c4)ccc3N=C2N)c1)C1CCCCC1 [Compound 436] ?
Reply: 50
